Biological target: Phospholipid hydroperoxide glutathione peroxidase GPX4 (Homo sapiens) (UniProt P36969)
Sequence (P36969 whole entry, looked up): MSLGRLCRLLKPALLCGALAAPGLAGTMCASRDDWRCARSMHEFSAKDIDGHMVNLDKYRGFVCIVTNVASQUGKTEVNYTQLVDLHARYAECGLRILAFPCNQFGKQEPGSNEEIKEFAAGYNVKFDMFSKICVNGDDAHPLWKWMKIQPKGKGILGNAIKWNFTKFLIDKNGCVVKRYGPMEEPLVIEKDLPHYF
Experiment: Primary qHTS Assay for Inhibitors of Recombinant Selenoprotein Glutathione Peroxidase 4 (GPX4) (AID 1845192); further: nearly all actives have a fitted effect of over 65% in size
Conditions: recombinant GPX4, GR-coupled NADPH fluorescence, 15 min; series mostly up to 50 µM
Results filed as inconclusive are left out. Calls of active or inactive are those of the source. The call rests on the fitted dose curve; in most records, active means well fitted inhibition curve with a large enough effect; inconclusive means small, poorly fitted or top-dose-only effect; inactive means flat fitted curve, though single readings scatter.
Result type: outcome

Below: 4 molecules and their reported outcome.
Molecule: CC(C)n1cnc2c(-c3cnc(N)nc3)nc(N3CCOCC3)nc21
outcome: inactive
--
Molecule: Cc1ccc(S(=O)(=O)NCc2ccc(C(=O)NCCN(Cc3ccccc3)C(C)C)cc2)cc1
outcome: inactive
--
Molecule: CN1CCN(c2ccc(OC(F)(F)F)c(Nc3ncc4c(n3)-c3c(c(C(N)=O)nn3CCO)CC4)c2)CC1
outcome: inactive
--
Molecule: CC(NC(=O)Cc1cc(F)cc(F)c1)C(=O)NC1C(=O)N(C)c2ccccc2-c2ccccc21 (centres undefined)
outcome: inactive

Give outcome (Phospholipid hydroperoxide glutathione peroxidase GPX4 (Homo sapiens) (UniProt P36969)) of the following molecule: CCCCCCCC(=O)CC[C@@H]1[C@@H](C/C=C\CCCC(=O)OC(C)C)[C@@H](O)C[C@H]1O
inactive

Give outcome (Phospholipid hydroperoxide glutathione peroxidase GPX4 (Homo sapiens) (UniProt P36969)) of the following molecule: COc1cc(/C=N\NC(=O)c2ccc3c(c2)OCO3)ccc1OCc1ccccc1
inactive

Give outcome (Phospholipid hydroperoxide glutathione peroxidase GPX4 (Homo sapiens) (UniProt P36969)) of the following molecule: Cc1ccc(C2(O)CCN(CCCC(=O)c3ccc(F)cc3)CC2)cc1
inactive

Give outcome (Phospholipid hydroperoxide glutathione peroxidase GPX4 (Homo sapiens) (UniProt P36969)) of the following molecule: C[C@@H]1C[C@H]2O[C@@]3(O[C@@H]2C(C)(C)O)C(O)[C@@]2(C)C4CCC5C(C)(C)[C@@H](O[C@H]6OC[C@H](O)[C@@H](O)[C@@H]6O)CC[C@@]56C[C@@]46CC[C@]2(C)C13 (some centres undefined)
inactive

Give outcome (Phospholipid hydroperoxide glutathione peroxidase GPX4 (Homo sapiens) (UniProt P36969)) of the following molecule: O=C(C(Cc1cccc(C(F)(F)F)c1)NS(=O)(=O)c1cc(F)c2c(c1)CCNC2)N1CCCC1 (centres undefined)
inactive

---

Test system: Es-2
Experiment: Primary qHTS to identify gynecologic anti-cancer compounds using libraries of approved drugs and bioactive compounds (AID 1345084); further: on the % scale 0 is the no-effect control and ±100 the full control effect; nearly all actives have a fitted effect of over 55% in size
Conditions: Gynecologic cancer cell panel viability, ATPlite luminescence, 48 h; series mostly up to 57.5 µM
Results filed as inconclusive are left out. The source made the active and inactive calls. The call rests on the fitted dose curve; in most records, active means well fitted cell-killing curve with a large enough effect; inconclusive means small, poorly fitted or top-dose-only effect, or effect the other way; inactive means flat fitted curve, though single readings scatter.
Result type: activity change, negative = cytotoxicity

Query (molecule): C=C1CO[C@@]2(O[C@H]3CC4C5CC=C6C[C@@H](O)C[C@@H](O[C@@H]7OC[C@H](O)[C@H](O[C@@H]8OC[C@@H](O)[C@H](O)[C@H]8O)[C@H]7O[C@@H]7O[C@@H](C)[C@H](OC(C)=O)[C@@H](OC(C)=O)[C@H]7OC(C)=O)[C@]6(C)C5CC[C@]4(C)[C@@H]3[C@@H]2C)[C@@H](O)[C@H]1OC1OC(C)C(O)C(O)C1O (stereo partly specified) ; field requested: activity change, negative = cytotoxicity
-0.0762% [at 6.55 µM] (inactive)

Query (molecule): C/C=C(/C)C(=O)O[C@H]1[C@H](OC(=O)/C(C)=C\C)[C@@]23C(CC1(C)C)[C@]1(CCC4[C@@]5(C)CC[C@H](O[C@@H]6O[C@H](C(=O)O)[C@@H](O)[C@H](O[C@@H]7O[C@H](CO)[C@H](O)[C@H](O)[C@H]7O[C@@H]7O[C@@H](C)[C@H](O)[C@@H](O)[C@H]7O[C@@H]7OC[C@@H](O)[C@H](O)[C@H]7O)[C@H]6O[C@@H]6O[C@H](CO)[C@H](O)[C@H](O)[C@H]6O)C(C)(C)C5CC[C@@]4(C)[C@]1(C)C[C@H]2O)O[C@H]3O (stereo partly specified) ; field requested: activity change, negative = cytotoxicity
0.581% [at 6.55 µM] (inactive)

Query (molecule): C=CC(C)(O)CC/C=C(\C)C(=O)OC1C(O)C(CO)OC(OC(=O)C23CCC(C)(C)CC2C2=CCC4C5(C)CCC(OC6OC(COC7OCC(OC(C)=O)C(O)C7OC7OC(COC(C)=O)C(O)C(O)C7OC(C)=O)C(O)C(O)C6OC6OCC(O)C(O)C6O)C(C)(C)C5CCC4(C)C2(C)C(O)C3O)C1OC1OCC(OC2OCC(O)C(OC3OCC(O)C(O)C3O)C2O)C(O)C1O (stereo unspecified) ; field requested: activity change, negative = cytotoxicity
-2.99% [at 6.55 µM] (inactive)

Query (molecule): CC1(C)CCC2(C(=O)OC3OC(COC4OC(CO)C(O)C(O)C4O)C(O)C(O)C3O)CCC3(C)C(=CCC4C5(C)CCC(OC6OCC(O)C(O)C6O)C(C)(C)C5CCC43C)C2C1O (stereo unspecified) ; field requested: activity change, negative = cytotoxicity
5.34% [at 11.6 µM] (inactive)

Query (molecule): C[C@H]1CC[C@@]2(OC1)O[C@H]1CC3[C@@H]4CC[C@@H]5C[C@@H](O[C@@H]6O[C@H](CO)[C@@H](O[C@@H]7O[C@@H](C)[C@H](O)[C@@H](O)[C@H]7O)[C@H](O)[C@H]6O[C@@H]6O[C@H](CO)[C@@H](O)[C@H](O)[C@H]6O)CC[C@]5(C)C4CC[C@]3(C)[C@H]1[C@@H]2C (stereo partly specified) ; field requested: activity change, negative = cytotoxicity
0.261% [at 11.6 µM] (inactive)

Query (molecule): CC1(C)CC[C@]23CO[C@@]4(CCC5[C@@]6(C)CC[C@H](O[C@@H]7OC[C@H](O[C@@H]8O[C@H](CO)[C@@H](O)[C@H](O)[C@H]8O[C@@H]8OC[C@@H](O)[C@H](O)[C@H]8O)[C@H](O)[C@H]7O)[C@@](C)(CO)C6CC[C@@]5(C)[C@]4(C)CC2=O)[C@@H]3C1 (stereo partly specified) ; field requested: activity change, negative = cytotoxicity
9.11% [at 11.6 µM] (inactive)
